Target entity: Man(a1-6)Man
Procedure text: glycan array binding signal (z-score within array); higher = stronger binding
Experimental conditions: glycan notation: IUPAC condensed, linker removed
Many of the other results were omitted from the sample, so the strongest signals are more common in it than they were.
Mark not satisfied for glycan array binding signal (z-score) values under -0.2, and satisfied for everything at or above.

>  <Binder>
PfulAvr4 (Pseudocercospora fuligena) (protein) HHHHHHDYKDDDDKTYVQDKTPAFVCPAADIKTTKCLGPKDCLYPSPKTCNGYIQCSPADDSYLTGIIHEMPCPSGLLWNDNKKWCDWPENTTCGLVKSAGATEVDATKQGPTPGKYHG

>  <Category label>
satisfied

$$$$
>  <Binder>
Protein L(B1-B4) (Finegoldia magna), Q51912 (protein) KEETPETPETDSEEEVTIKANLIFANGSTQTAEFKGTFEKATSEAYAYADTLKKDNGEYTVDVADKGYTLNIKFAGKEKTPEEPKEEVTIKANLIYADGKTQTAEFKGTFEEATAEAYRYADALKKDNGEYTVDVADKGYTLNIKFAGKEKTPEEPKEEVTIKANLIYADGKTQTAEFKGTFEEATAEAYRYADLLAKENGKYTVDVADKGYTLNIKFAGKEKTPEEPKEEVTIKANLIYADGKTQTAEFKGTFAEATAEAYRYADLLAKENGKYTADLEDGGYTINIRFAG

>  <Category label>
satisfied

$$$$
>  <Binder>
Clone730PsrP (Streptococcus pneumoniae) (protein) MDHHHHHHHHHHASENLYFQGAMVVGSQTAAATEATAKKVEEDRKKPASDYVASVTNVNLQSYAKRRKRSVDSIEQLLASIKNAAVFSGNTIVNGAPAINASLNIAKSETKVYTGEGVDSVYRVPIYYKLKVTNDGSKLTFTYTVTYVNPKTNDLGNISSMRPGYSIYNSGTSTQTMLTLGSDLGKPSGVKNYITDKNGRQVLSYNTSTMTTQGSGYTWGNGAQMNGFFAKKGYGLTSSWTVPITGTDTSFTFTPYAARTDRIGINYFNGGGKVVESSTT

>  <Category label>
satisfied

$$$$
>  <Binder>
Pwp3 (Candida glabrata) (protein) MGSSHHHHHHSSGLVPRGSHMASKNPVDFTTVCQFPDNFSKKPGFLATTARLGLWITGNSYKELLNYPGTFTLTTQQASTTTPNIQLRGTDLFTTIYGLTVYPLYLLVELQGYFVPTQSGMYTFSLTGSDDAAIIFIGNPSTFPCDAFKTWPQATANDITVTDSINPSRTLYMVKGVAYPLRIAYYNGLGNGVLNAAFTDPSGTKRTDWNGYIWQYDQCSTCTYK

>  <Category label>
not satisfied

$$$$
>  <Binder>
Na-CTL-1 (Necator americanus) (protein) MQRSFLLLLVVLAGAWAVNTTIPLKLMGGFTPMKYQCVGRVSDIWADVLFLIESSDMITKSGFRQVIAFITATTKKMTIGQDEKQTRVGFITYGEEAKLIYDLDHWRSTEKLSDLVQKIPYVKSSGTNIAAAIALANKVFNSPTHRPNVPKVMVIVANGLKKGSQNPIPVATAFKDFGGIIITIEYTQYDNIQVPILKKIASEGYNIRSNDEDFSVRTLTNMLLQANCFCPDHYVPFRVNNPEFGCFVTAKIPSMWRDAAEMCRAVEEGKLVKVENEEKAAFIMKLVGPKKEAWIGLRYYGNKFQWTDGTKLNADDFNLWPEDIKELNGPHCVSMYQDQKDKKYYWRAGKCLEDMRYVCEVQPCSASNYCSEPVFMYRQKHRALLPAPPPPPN

>  <Category label>
not satisfied

$$$$

QUERY: Confirm if glycan array binding signal (z-score) reported for the binder FimA-N3 (Actinomyces oris) (protein) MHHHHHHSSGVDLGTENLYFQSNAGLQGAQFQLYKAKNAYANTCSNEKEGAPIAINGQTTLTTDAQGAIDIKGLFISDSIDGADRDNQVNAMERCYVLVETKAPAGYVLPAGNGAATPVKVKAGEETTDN is -0.2 or above.
RESULT: satisfied
